Molecular target: hGLP-1R (Homo sapiens, UniProt P43220)
Sequence (P43220 24-463): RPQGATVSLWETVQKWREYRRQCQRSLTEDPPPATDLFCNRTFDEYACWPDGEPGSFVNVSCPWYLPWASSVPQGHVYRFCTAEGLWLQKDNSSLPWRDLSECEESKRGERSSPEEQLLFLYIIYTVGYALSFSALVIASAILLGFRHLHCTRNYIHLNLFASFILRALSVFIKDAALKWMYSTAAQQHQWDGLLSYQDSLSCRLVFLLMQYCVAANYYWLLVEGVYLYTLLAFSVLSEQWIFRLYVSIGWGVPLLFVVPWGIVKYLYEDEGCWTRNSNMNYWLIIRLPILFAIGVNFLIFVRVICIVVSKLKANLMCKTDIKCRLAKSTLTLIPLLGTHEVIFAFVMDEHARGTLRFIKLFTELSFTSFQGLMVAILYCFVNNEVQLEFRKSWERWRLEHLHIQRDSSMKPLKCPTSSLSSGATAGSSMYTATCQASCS
Assay: cell-based or functional assay
Non-standard residues stand in square brackets, D forms with d. No end group written: not given here. Phe(4-CN) = N#Cc1ccc(C[C@H](N)C(=O)O)cc1; αMePhe(2-F) = C[C@](N)(Cc1ccccc1F)C(=O)O; NMeY = CN[C@@H](Cc1ccc(O)cc1)C(=O)O; αMeF = C[C@](N)(Cc1ccccc1)C(=O)O; αMeL = CC(C)C[C@](C)(N)C(=O)O; Aib = CC(C)(N)C(=O)O
Is cAMP Rel EC50 (1% HSA) at least 200 nM? Then yes. If not, no.

| binder | group label |
| --- | --- |
| Y[Aib]QGTFTSDYSI[αMeL]LDKQAAKQFVEWLIA[Aib]GPSSGEPPPGSG-NH2 (not fully specified (residue 20)) [Example 335] | no |

Given YXQGTXTSDXSIXLDKKAQXXFIEYLQEGGPSSGEPPPEGSEE (synthetic construct; SITE 2: note = 2-Aminoisobutyric Acid; SITE 6: note = alpha-methyl-2-fluoro-L-phenylalanine; SITE 10: note = 3-(4-Pyridyl)-L-alanine; SITE 13: note = alpha-methyl-leucine; SITE 17: note = Lysine is chemically modified through conjugation of the epsilon-amino group of the Lysine) [Example 653] , state whether its cAMP Rel EC50 (1% HSA) is at least 200 nM.
no

Could you please find out whether YXQGTXTSDXXIXLDXKAQXNFIEXLQEGGPSSGEPPPEGTE (synthetic construct; SITE 2: note = 2-Aminoisobutyric Acid; SITE 6: note = alpha-methyl-2-fluoro-L-phenylalanine; SITE 10: note = 3-(4-Pyridyl)-L-alanine; SITE 11: note = alpha-methyl-L-serine; SITE 13: note = alpha-methyl-leucine; SITE 16: note = L-ornithine; SITE 17: note = Lysine is chemically mo) [Example 526] has cAMP Rel EC50 (1% HSA) that meets 200 nM or exceeds it?
no

Check if cAMP Rel EC50 (1% HSA) >= 200 nM (inclusive). Item: [NMeY][Aib]QGT[αMeF]TSDYSSLLDKIAAKAFIEYLLEGGPSSGEPPPSEG-NH2 (not fully specified (residue 20)) [Example 297]
yes

Please check the record Y[Aib]QGT[αMePhe(2-F)]TSD[Phe(4-CN)]SILLDKQAQKAFIQYLLEGGPSSGEPPPSEG-NH2 (not fully specified (residue 20)) [Example 341] and state if its cAMP Rel EC50 (1% HSA) is at or above 200 nM.
yes
